targetEntity: UniProt:P11362
Sequence (P11362 22-822): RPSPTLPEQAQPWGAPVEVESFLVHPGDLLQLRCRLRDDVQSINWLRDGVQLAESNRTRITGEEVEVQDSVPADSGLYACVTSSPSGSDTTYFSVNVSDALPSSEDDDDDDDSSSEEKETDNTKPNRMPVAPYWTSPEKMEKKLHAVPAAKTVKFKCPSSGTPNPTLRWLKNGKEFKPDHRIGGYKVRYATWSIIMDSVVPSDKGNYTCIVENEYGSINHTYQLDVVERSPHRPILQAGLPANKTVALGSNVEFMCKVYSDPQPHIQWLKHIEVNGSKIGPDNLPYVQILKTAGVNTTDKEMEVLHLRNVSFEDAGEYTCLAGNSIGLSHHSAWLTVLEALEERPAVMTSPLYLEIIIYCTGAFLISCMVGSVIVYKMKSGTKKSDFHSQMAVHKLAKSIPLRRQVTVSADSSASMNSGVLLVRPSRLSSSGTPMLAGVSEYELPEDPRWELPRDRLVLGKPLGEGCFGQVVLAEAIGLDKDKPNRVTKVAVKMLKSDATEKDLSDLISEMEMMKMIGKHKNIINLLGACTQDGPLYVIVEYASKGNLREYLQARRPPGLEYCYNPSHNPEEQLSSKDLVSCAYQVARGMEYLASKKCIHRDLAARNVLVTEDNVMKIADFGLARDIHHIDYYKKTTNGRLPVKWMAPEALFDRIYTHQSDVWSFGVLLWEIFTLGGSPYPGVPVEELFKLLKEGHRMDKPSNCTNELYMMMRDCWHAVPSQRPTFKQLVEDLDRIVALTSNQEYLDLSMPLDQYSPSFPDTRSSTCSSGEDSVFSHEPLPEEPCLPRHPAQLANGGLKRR
testDetails: FGFR1 (enzymatic assay), TR-FRET
Assay type: biochemical
experimentalParameters: FGFR 1 pIC50, 5 μM ATP, 60 min; pIC50 = -log IC50 (M); average if tested multiple times
observable: IC50 (M)
# unit: M | format: bare number

Field: example entries. Status: answers known.
molecule: COc1cc(OC)cc(N(CCCO)c2ccc3ncc(-c4cnn(C)c4)cc3c2)c1
quantityUnit: M
IC50: 1.91e-08

molecule: COc1cc(OC)cc(N(Cc2ncc[nH]2)c2ccc3ncc(-c4cnn(C)c4)cc3c2)c1
quantityUnit: M
IC50: 2.75e-09

molecule: COc1cc(OC)cc(C(CC(N)=O)c2ccc3ncc(-c4cnn(C)c4)cc3c2)c1 (centres unmarked)
quantityUnit: M
IC50: 1.86e-07

molecule: COc1cccnc1C#CCN(c1ccc2ncc(-c3cnn(C)c3)cc2c1)c1c(F)c(OC)cc(OC)c1F
quantityUnit: M
IC50: 1.64e-09

// IC50 lookup, molecule = COc1cc(OC)cc(N(Cc2ncc[nH]2)c2ccc3ncc(C4CCNCC4)cc3c2)c1 [Compound 48a] , result: 2.95e-07

// IC50 lookup, molecule = COc1cc(OC)cc(N(Cc2ncc[nH]2)c2ccc3ncc(-c4ccncc4)cc3c2)c1 , result: 2.82e-09

// IC50 lookup, molecule = COc1cc(OC)cc(N(Cc2ncc[nH]2)c2ccc3ncc(C4=CCNCC4)cc3c2)c1 , result: 6.31e-09

// IC50 lookup, molecule = COc1cc(OC)cc(N(Cc2ncc[nH]2)c2ccc3ncc(N4CCOCC4)cc3c2)c1 , result: 9.12e-08
